src = BindingDB's records for patent US20230159469

Reported IC50, Ectonucleotide pyrophosphatase/phosphodiesterase family member 1 (Homo sapiens).

COc1cc2c(-c3ccc(CNS(=N)(=O)O)cc3)nn(C)c(=O)c2cc1OC [US20230159469, Example 108] :: ≥ 1000 nM
NS(=O)(=O)Nc1cccc(-c2n[nH]c(=O)c3ccccc23)c1 [US20230159469, Example 87] :: < 1000 nM

From here, focus on the item given below.
Note to self: IC50 of N=S(=O)(O)NCc1ccc(-c2n[nH]c(=O)c3ccccc23)cc1 [US20230159469, Example 96] with Ectonucleotide pyrophosphatase/phosphodiesterase family member 1 (Homo sapiens) was < 1000 nM
